Where these numbers come from: ChEMBL document CHEMBL2169778

Molecular target: Signal transducer and activator of transcription 1-alpha/beta (Homo sapiens, UniProt P42224)
Sequence (P42224 whole entry): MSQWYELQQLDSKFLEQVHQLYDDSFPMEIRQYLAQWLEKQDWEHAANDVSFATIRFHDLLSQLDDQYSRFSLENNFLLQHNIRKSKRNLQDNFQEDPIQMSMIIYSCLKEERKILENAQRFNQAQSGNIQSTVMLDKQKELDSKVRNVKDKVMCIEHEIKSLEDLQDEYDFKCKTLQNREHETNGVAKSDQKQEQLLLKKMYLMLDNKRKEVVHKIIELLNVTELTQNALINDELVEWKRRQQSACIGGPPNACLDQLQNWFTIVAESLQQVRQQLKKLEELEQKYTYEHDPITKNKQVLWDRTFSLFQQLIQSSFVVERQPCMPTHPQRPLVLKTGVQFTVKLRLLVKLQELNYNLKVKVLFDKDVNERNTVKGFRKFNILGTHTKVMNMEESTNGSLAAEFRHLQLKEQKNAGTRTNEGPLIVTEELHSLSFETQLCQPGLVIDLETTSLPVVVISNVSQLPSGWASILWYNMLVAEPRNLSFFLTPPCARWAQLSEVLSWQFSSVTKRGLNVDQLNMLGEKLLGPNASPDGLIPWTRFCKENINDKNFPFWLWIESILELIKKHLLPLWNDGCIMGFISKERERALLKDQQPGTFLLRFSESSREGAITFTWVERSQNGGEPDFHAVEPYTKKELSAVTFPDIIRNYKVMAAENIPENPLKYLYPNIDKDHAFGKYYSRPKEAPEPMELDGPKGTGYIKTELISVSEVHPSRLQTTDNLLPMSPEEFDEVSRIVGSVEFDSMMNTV
pKi: −log10 of the molar value.
ENDPOINT NAME: pKi

> print(dat)
                                   compound  reported.result
1  Cc1ccc(S(=O)(=O)N(C)CC(=O)N(Cc2ccc(C3CCCCC3)cc2)c2ccc(C(=O)O)c(O)c2)cc1           ≤ 4.30

---

target: Signal transducer and activator of transcription 3 (Homo sapiens); test: Inhibition of recombinant STAT3 assessed as inhibition of STAT3-phosphododecapeptide interaction by SPR analysis
Sequence (P40763 whole entry, the tested form may be a part): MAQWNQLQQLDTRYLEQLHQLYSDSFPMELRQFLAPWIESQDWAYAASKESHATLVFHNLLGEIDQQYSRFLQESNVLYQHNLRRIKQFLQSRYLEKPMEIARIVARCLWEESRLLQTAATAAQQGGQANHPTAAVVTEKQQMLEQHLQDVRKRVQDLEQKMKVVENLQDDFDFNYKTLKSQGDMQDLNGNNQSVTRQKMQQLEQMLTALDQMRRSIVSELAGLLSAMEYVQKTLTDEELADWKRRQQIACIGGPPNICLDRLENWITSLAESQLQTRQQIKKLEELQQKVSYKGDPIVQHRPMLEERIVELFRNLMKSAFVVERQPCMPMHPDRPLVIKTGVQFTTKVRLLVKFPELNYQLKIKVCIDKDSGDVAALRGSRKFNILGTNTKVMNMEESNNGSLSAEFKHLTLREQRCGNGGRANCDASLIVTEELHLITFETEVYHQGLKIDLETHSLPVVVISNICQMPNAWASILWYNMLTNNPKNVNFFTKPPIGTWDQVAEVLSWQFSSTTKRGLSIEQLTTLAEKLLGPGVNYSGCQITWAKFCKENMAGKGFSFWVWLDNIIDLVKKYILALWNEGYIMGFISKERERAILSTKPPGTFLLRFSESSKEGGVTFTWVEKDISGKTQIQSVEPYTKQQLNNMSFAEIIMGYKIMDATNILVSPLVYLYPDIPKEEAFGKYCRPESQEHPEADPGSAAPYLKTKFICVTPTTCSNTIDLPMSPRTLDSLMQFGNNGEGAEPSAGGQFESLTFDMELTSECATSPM
ENDPOINT NAME: IC50 (µM)

> print(dat)
                                   compound  reported.result
1  O=C(O)c1ccc(/C=C/C(=O)c2ccc3c(c2)OCCO3)cc1              447

---

target: UniProtKB P40763; experiment: Inhibition of STAT3 SH2 domain using 5-carboxyfluorescein-GY(PO3H2)LPQTV-NH2 as substrate preincubated for 60 mins prior to substrate addition by fluorescence polarization assay
pIC50: −log10 of the molar value.
ENDPOINT NAME: pIC50

> print(dat)
                               compound  reported.result
1  O=[N+]([O-])c1ccc2c(c1)S(=O)(=O)C=C2             5.29

---

molecular target: Signal transducer and activator of transcription 3 (Homo sapiens); assay: Inhibition of STAT3 SH2 domain assessed as inhibition of STAT3 SH2-phosphotyrosine interaction by AlphaScreen assay
ENDPOINT NAME: IC50

> print(dat)
                                   compound  endpoint.name  reported.result
1  C1=Cc2nc1cc1ccc([nH]1)c(-c1ccccc1)c1nc(cc3ccc([nH]3)c2-c2ccccc2)C=C1           IC50          0.28 µM
